The following compounds are listed with their measured inhibition at 1 µM values.
# measured target: MAGL (Mus musculus, UniProt O35678)
# Construct: Proteomes (mouse brain membrane fraction or cell lysates); from tissue; host or cells: mouse brain membrane fraction (or cell lysates)
# Sequence (O35678 1-303): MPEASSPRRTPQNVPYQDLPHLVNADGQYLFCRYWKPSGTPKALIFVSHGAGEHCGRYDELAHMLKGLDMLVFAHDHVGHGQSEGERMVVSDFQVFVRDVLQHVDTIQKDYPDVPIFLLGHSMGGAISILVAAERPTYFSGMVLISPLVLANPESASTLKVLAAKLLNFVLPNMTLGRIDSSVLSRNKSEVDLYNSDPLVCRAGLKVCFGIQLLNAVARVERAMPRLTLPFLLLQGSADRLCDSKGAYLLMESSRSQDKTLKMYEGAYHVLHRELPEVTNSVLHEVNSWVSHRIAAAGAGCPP
# assay comment: In vitro competitive activity-based protein profiling (mouse), MAGL gel band
# Format: biochemical
# run conditions: read-out: MAGL % inh. 1 μM
experimental readout: inhibition at 1 µM

>  <compound>
CS(=O)(=O)Nc1ccn(C(=O)N2CCC3(CCCN3Cc3cccc(N4CCCC4)c3Cl)CC2)n1 [Example 141]

>  <experimental readout>
inhibition at 1 µM

>  <result>
≥ 75%

$$$$
>  <compound>
CS(=O)(=O)Nc1ccn(C(=O)N2CCN(Cc3ccc(C(F)(F)F)cc3N3CCC4(CCN(S(C)(=O)=O)CC4)C3)CC2)n1 [Example 235]

>  <experimental readout>
inhibition at 1 µM

>  <result>
≥ 75%

$$$$
>  <compound>
CS(=O)(=O)Nc1ccn(C(=O)N2CCC3(CCCN3Cc3ccc(C(F)(F)F)cc3Cl)CC2)n1 [Example 197]

>  <experimental readout>
inhibition at 1 µM

>  <result>
≥ 75%

$$$$
>  <compound>
CS(=O)(=O)Nc1ccn(C(=O)N2CCN(Cc3cc(N4CCCC4)cc(C(F)(F)F)c3)CC2)n1 [Example 156]

>  <experimental readout>
inhibition at 1 µM

>  <result>
≥ 75%

$$$$
>  <compound>
CC(=O)Nc1ccn(C(=O)N2CCC3(CCCN3Cc3ccc(C(F)(F)F)cc3N3CCN(C4CC4)CC3)CC2)n1 [Example 30]

>  <experimental readout>
inhibition at 1 µM

>  <result>
≥ 75%

$$$$
>  <compound>
CC(=O)Nc1ccn(C(=O)N2CCN(Cc3ccc(C(F)(F)F)cc3N3CCCC3)CC2)n1 [Example 1]

>  <experimental readout>
inhibition at 1 µM

>  <result>
≥ 75%

$$$$
>  <compound>
CC(=O)Nc1ccn(C(=O)N2CCC3(CCCN3Cc3ccc(C(F)(F)F)c(C(=O)O)c3)CC2)n1 [Example 108]

>  <experimental readout>
inhibition at 1 µM

>  <result>
50 to 75%

$$$$
>  <compound>
CC(=O)Nc1ccn(C(=O)N2CCC3(CCCN3Cc3ccc4[nH]cnc4c3)CC2)n1 [Example 253]

>  <experimental readout>
inhibition at 1 µM

>  <result>
50 to 75%

$$$$
>  <compound>
CS(=O)(=O)Nc1ccn(C(=O)N2CCC3(CCCN3Cc3ccc(Cl)cc3N3CCOCC3)CC2)n1 [Example 264]

>  <experimental readout>
inhibition at 1 µM

>  <result>
25 to 50%

$$$$
>  <compound>
CC(=O)Nc1ccn(C(=O)N2CCN(Cc3ccc(C(F)(F)F)cc3N3CCC4(CC3)CCN(S(C)(=O)=O)C4)CC2)n1 [Example 43]

>  <experimental readout>
inhibition at 1 µM

>  <result>
≥ 75%

$$$$
>  <compound>
O=C(CO)Nc1ccn(C(=O)N2CCN(Cc3ccc(Cl)cc3)CC2)n1 [Example 91]

>  <experimental readout>
inhibition at 1 µM

>  <result>
≥ 75%

$$$$
>  <compound>
CS(=O)(=O)Nc1ccn(C(=O)N2CCN(Cc3ccc(C(F)(F)F)c(N4CCN5CCC[C@@H]5C4)c3)CC2)n1 [Example 278]

>  <experimental readout>
inhibition at 1 µM

>  <result>
≥ 75%

$$$$
>  <compound>
CS(=O)(=O)Nc1ccn(C(=O)N2CCN(Cc3ccc(C(F)(F)F)cc3N3CCCC3)CC2)n1 [Example 188]

>  <experimental readout>
inhibition at 1 µM

>  <result>
≥ 75%

$$$$
>  <compound>
CC1CCCN1c1cc(CN2CCN(C(=O)n3ccc(NS(C)(=O)=O)n3)CC2)ccc1Cl (stereo not shown) [Example 200]

>  <experimental readout>
inhibition at 1 µM

>  <result>
≥ 75%

$$$$
>  <compound>
CS(=O)(=O)Nc1ccn(C(=O)N2CCC3(CCCN3Cc3ccc(C(F)(F)F)cc3N3CCC(C(=O)O)C3)CC2)n1 (stereo not shown) [Example 245]

>  <experimental readout>
inhibition at 1 µM

>  <result>
0 to 25%

$$$$
>  <compound>
CC(=O)Nc1ccn(C(=O)N2CCN(Cc3ccc(C(F)(F)F)cc3N3CCOCC3)CC2)n1 [Example 3]

>  <experimental readout>
inhibition at 1 µM

>  <result>
≥ 75%

$$$$
>  <compound>
CS(=O)(=O)Nc1ccn(C(=O)N2CCC3(CCCN3Cc3ccc(C(F)(F)F)cc3N3CCOCC3)CC2)n1 [Example 126]

>  <experimental readout>
inhibition at 1 µM

>  <result>
≥ 75%

$$$$
>  <compound>
CC(=O)Nc1ccn(C(=O)N2CCN(Cc3ccc(C(F)(F)F)cc3N3CC4CCC(C3)O4)CC2)n1 [Example 40]

>  <experimental readout>
inhibition at 1 µM

>  <result>
≥ 75%

$$$$
>  <compound>
CC(=O)Nc1ccn(C(=O)N2CCC3(CCCN3Cc3ccc(N4CCCC4)c(C(F)(F)F)c3)CC2)n1 [Example 102]

>  <experimental readout>
inhibition at 1 µM

>  <result>
≥ 75%

$$$$
>  <compound>
CS(=O)(=O)Nc1ccn(C(=O)N2CCN(Cc3ccc(C(F)(F)F)cc3N3C4CCC3CN(S(C)(=O)=O)C4)CC2)n1 [Example 208]

>  <experimental readout>
inhibition at 1 µM

>  <result>
≥ 75%

$$$$
>  <compound>
CC(=O)Nc1ccn(C(=O)N2CCN(Cc3ccc(Cl)cc3N3CCC(F)CC3)CC2)n1 [Example 7]

>  <experimental readout>
inhibition at 1 µM

>  <result>
≥ 75%

$$$$
>  <compound>
CC(=O)Nc1ccn(C(=O)N2CCC3(CCCN3Cc3ccc(Cl)cc3N3CCCC3)CC2)n1 [Example 14]

>  <experimental readout>
inhibition at 1 µM

>  <result>
≥ 75%

$$$$

* * *

# measured target: MAGL (Mus musculus)
# Construct: Proteomes (mouse brain membrane fraction or cell lysates); from tissue; host or cells: mouse brain membrane fraction (or cell lysates)
# assay comment: Mouse brain proteomes from inhibitor treated mice (oral gavage, sacrificed 4 h after administration)
# Assay type: in vivo
# run conditions: read-out: MAGL % inh. 5 mg/kg
# Procedure: Compounds are tested to assess their MAGL and other serine hydrolase activity using the following in vitro and in vivo assays. Preparation of Mouse Brain Proteomes from Inhibitor Treated Mice. Inhibitors were administered to wild-type C57Bl/6J by oral gavage in a vehicle of polyethylene glycol. […]

>  <molecule>
CS(=O)(=O)Nc1ccn(C(=O)N2CCC3(CCCN3Cc3ccc(C(F)(F)F)cc3N3C[C@H]4CC[C@@H](C3)O4)CC2)n1 [Example 136]

>  <inhibition at 5 mg/kg>
0 to 25%

$$$$
>  <molecule>
CC(=O)Nc1ccn(C(=O)N2CCC3(CCCN3Cc3ccc(C(F)(F)F)cc3N3CCC(F)(F)CC3)CC2)n1 [Example 29]

>  <inhibition at 5 mg/kg>
0 to 25%

$$$$
>  <molecule>
CC(=O)Nc1ccn(C(=O)N2CCC3(CCCN3Cc3cc(Oc4cncnc4)cc(C(F)(F)F)c3)CC2)n1 [Example 84]

>  <inhibition at 5 mg/kg>
0 to 25%

$$$$
>  <molecule>
CC(=O)Nc1ccn(C(=O)N2CCC3(CCCN3Cc3ccc(C(F)(F)F)cc3N3CCC4(CC3)CCN(S(C)(=O)=O)C4)CC2)n1 [Example 26]

>  <inhibition at 5 mg/kg>
0 to 25%

$$$$
>  <molecule>
CCc1cc(CN2CCCC23CCN(C(=O)n2ccc(NC(C)=O)n2)CC3)ccc1F [Example 95]

>  <inhibition at 5 mg/kg>
≥ 75%

$$$$

* * *

# measured target: FAAH (Mus musculus, UniProt O08914)
# Construct: Proteomes (mouse brain membrane fraction or cell lysates); from tissue; host or cells: mouse brain membrane fraction (or cell lysates)
# Sequence (O08914 1-579): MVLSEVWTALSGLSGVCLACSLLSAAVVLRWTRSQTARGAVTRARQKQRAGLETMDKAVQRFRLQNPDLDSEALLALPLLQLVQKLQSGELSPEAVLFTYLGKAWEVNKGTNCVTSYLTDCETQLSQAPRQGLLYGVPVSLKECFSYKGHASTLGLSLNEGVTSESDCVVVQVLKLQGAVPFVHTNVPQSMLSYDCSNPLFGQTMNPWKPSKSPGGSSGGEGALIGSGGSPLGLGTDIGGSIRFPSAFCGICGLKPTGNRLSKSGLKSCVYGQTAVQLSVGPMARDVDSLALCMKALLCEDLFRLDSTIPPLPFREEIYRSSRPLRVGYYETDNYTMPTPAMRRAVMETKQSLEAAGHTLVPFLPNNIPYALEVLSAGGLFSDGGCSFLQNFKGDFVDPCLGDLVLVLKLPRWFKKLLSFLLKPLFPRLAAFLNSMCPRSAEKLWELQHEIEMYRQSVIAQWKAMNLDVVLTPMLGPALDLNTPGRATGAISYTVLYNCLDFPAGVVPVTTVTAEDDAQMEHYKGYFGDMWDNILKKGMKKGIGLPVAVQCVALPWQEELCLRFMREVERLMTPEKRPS
# assay comment: In vitro competitive activity-based protein profiling (mouse), FAAH gel band
# Format: biochemical
# run conditions: read-out: FAAH % inh. 1 μM

>  <smiles code>
CC(=O)Nc1ccn(C(=O)N2CCN(Cc3ccc(C(F)(F)F)cc3N3CCC(C(N)=O)CC3)CC2)n1

>  <measured target>
FAAH (Mus musculus, UniProt O08914)

>  <inhibition at 1 µM>
0 to 25%

$$$$
>  <smiles code>
CS(=O)(=O)Nc1ccn(C(=O)N2CCC3(CCCN3Cc3cccc(N4CC5CCC(C4)O5)c3Cl)CC2)n1

>  <measured target>
FAAH (Mus musculus, UniProt O08914)

>  <inhibition at 1 µM>
0 to 25%

$$$$
>  <smiles code>
CC(=O)N1CCC2(CC1)CCN(c1cc(CN3CCN(C(=O)n4ccc(NS(C)(=O)=O)n4)CC3)ccc1Cl)C2

>  <measured target>
FAAH (Mus musculus, UniProt O08914)

>  <inhibition at 1 µM>
0 to 25%

$$$$
>  <smiles code>
CS(=O)(=O)Nc1ccn(C(=O)N2CCN(Cc3ccc(N4CCOCC4)cc3C(F)(F)F)CC2)n1

>  <measured target>
FAAH (Mus musculus, UniProt O08914)

>  <inhibition at 1 µM>
0 to 25%

$$$$
>  <smiles code>
CS(=O)(=O)Nc1ccn(C(=O)N2CCN(Cc3ccc(C(F)(F)F)cc3N3CCN(C(N)=O)CC3)CC2)n1

>  <measured target>
FAAH (Mus musculus, UniProt O08914)

>  <inhibition at 1 µM>
0 to 25%

$$$$
